What follows is literature data on pKi for Androgen receptor (Homo sapiens, UniProt P10275).
To interpret pKi, take it as minus log10 of a concentration measured in moles per litre.

compound: CS(=O)(=O)Nc1cccc2cc[nH]c12
readout-name: pKi
obs-value: 6.45

compound: CC1=CC(C)(C)Nc2ccc3c(c21)C(c1ccccc1)Oc1ccccc1-3 (stereo unspecified)
readout-name: pKi
obs-value: 5.73

compound: CC1=CC(C)(C)Nc2ccc3c(c21)C(c1ccc(Cl)c(C)c1)Oc1ccccc1-3 (stereo unspecified)
readout-name: pKi
obs-value: 5.73

Form field, pKi with Androgen receptor (Homo sapiens, UniProt P10275), item `CC(C)n1cc(-c2ccc(C#N)c(F)c2)c2ccc(NS(C)(=O)=O)cc21` : 6.19

Form field, pKi with Androgen receptor (Homo sapiens, UniProt P10275), item COc1ccc(C(c2ccccc2)c2c[nH]c3ccccc23)cc1 (stereo unspecified) : 7.16

###

What follows is literature data on log10 of Ki for UniProt P10275.
The common logarithm of Ki in nM is what is listed.

Previously resolved entries follow.
molecule: C#C[C@]1(O)CC[C@H]2[C@@H]3CCC4=CC(=O)CCC4=C3[C@@H](c3ccc(N(C)C(=O)CC[C@H](NC(=O)CC[C@@H](C)[C@H]4CC[C@H]5[C@@H]6[C@H](O)C[C@@H]7C[C@H](O)CC[C@]7(C)[C@H]6C[C@H](O)[C@]45C)C(=O)O)cc3)C[C@@]21C
log10 of Ki: 1.53
//
molecule: CCC(CC)(c1ccc(OC[C@@H](O)CO)c(C)c1)c1ccc(OC[C@H](O)C(C)(C)C)c(C)c1
log10 of Ki: 3.00
//
molecule: COc1cccc2c1-c1ccc3c(c1C(c1cccc(C(F)(F)F)c1)O2)C(C)=CC(C)(C)N3 (stereo not given)
log10 of Ki: 3.53

Form field, log10 of Ki with UniProt P10275, item COc1cccc2c1-c1ccc3[nH]c(=O)cc(C)c3c1C(O)O2 (stereo not given) : 3.11

Form field, log10 of Ki with UniProt P10275, item `COC(=O)c1ccc(N(Cc2ccccc2)c2cc(C(=O)N3CCCC3)n(C)c2)cc1` : 2.26

Form field, log10 of Ki with UniProt P10275, item CC1=CC(C)(C)Nc2ccc3c(c21)C(c1cc(C)cc(Br)c1)Oc1ccccc1-3 (stereo not given) : 3.54

Form field, log10 of Ki with UniProt P10275, item `Cc1cc(C)cc(Nc2cc(C(=O)N3CCCC3)n(C)c2)c1` : 3.49

Form field, log10 of Ki with UniProt P10275, item CC1=CC(C)(C)Nc2ccc3c(c21)C(c1ccc(C)cc1)Oc1ccccc1-3 (stereo not given) : 3.37

Form field, log10 of Ki with UniProt P10275, item `CC(=O)c1ccc(N(Cc2ccccc2)c2cc(C(=O)N3CCCC3)n(C)c2)cc1` : 2.15

Form field, log10 of Ki with UniProt P10275, item `CC(=O)N1CCN(CCOc2ccc(C3CCN(C4=Nn5c(nnc5C(F)(F)F)CC4)CC3)cc2)CC1` : 3.70

Form field, log10 of Ki with UniProt P10275, item `CCC(CC)(c1ccc(OC[C@H](O)CO)c(C)c1)c1ccc(OC[C@@H](O)C(C)(C)C)c(C)c1` : 3.04

Form field, log10 of Ki with UniProt P10275, item `CS(=O)(=O)Nc1cccc(C=C2c3ccccc3CCc3ccccc32)c1` : 2.62

###

- target-system: Androgen receptor (Homo sapiens, UniProt P10275)
- Sequence (P10275 whole entry): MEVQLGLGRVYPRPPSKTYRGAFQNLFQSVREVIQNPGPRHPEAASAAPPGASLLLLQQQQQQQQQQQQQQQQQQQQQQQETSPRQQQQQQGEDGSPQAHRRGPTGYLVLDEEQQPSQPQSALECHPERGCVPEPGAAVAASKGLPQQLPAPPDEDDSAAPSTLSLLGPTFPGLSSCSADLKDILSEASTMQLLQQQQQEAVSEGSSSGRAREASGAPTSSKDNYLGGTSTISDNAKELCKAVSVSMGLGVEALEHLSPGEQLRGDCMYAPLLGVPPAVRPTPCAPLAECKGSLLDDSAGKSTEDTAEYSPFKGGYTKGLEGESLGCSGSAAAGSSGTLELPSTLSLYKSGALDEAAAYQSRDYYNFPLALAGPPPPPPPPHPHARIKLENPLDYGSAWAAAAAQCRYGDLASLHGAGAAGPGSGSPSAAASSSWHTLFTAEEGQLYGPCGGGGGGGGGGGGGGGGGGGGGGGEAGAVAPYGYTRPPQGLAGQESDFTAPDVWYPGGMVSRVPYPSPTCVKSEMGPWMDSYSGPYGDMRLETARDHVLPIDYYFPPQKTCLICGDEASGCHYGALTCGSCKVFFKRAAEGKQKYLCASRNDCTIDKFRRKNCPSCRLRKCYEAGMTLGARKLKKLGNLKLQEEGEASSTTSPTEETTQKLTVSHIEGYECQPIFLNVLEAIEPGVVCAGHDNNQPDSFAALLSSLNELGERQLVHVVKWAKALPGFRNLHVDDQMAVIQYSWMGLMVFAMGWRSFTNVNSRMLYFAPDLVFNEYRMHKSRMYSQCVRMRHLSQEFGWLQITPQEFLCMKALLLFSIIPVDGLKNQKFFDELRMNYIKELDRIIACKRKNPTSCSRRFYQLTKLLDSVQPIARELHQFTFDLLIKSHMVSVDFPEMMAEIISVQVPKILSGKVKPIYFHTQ
What follows is literature data on Ki for Androgen receptor (Homo sapiens, UniProt P10275).
State just the number; it will be interpreted in nM.

molecule: COc1cccc2c1-c1ccc3[nH]c(=O)cc(C)c3c1C(OC)O2 (stereo not given)
readout-name: Ki
obs-value: 2350
//
molecule: C#C[C@]1(O)CC[C@H]2[C@@H]3CCC4=CC(=O)CCC4=C3[C@@H](c3ccc(N(C)CCCOC4CC[C@@]5(C)[C@@H](C4)C[C@@H](O)[C@@H]4[C@@H]5C[C@H](O)[C@]5(C)[C@@H]([C@H](C)CCC(=O)O)CC[C@@H]45)cc3)C[C@@]21C (stereo not given in full)
readout-name: Ki
obs-value: 4.6
//
molecule: Cn1cc(N(Cc2ccccc2)c2ccc(C#N)cc2)cc1C(=O)N1CCCC1
readout-name: Ki
obs-value: 130

Proceed to the following item.
Field Ki (entry CCO/N=C1/c2c(cc(F)c(-c3cccc4c(C)c[nH]c34)c2F)NC(C)(C)C1O (racemic) ) reads 430

###

- target-system: Androgen receptor (Homo sapiens, UniProt P10275)
- Sequence (P10275 whole entry): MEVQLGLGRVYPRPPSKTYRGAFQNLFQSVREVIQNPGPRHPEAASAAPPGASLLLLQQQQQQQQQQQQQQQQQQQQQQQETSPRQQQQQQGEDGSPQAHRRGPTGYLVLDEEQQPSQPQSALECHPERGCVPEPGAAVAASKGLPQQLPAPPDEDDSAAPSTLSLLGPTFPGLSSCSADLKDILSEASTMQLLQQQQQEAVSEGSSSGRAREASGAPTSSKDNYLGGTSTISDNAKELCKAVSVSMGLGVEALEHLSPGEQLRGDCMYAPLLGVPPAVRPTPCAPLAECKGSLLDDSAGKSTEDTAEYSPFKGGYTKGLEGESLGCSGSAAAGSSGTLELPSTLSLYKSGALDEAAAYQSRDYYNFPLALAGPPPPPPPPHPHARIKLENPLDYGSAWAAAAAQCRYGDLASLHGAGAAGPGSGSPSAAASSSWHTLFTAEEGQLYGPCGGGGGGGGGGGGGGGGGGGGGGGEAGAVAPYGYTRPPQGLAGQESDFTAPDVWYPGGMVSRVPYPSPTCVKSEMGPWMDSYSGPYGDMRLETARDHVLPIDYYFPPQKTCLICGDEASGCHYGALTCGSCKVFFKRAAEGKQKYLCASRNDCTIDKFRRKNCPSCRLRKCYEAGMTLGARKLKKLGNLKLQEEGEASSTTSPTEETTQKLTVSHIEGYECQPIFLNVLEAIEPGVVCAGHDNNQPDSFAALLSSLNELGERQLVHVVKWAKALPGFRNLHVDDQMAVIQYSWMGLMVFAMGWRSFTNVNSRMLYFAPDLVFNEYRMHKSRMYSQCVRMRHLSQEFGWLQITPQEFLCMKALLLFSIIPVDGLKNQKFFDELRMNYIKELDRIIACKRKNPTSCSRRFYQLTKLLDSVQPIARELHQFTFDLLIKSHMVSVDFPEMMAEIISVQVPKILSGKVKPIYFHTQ
What follows is literature data on Ki for Androgen receptor (Homo sapiens, UniProt P10275).
State just the number; it will be interpreted in nM.

Previously resolved entries follow.
compound: Cc1cc(=O)[nH]c2ccc3c4cc(F)ccc4oc(=O)c3c12
Ki / nM: 1000
//
compound: Cc1c[nH]c2c(-c3c(F)cc4c(c3F)/C(=N/OC(C)C)CC(C)(C)N4)cccc12
Ki / nM: 1500

Proceed to the following item.
Form field, Ki with Androgen receptor (Homo sapiens, UniProt P10275), item `C[C@](c1ccc(F)cc1F)(c1c[nH]c2c(NS(C)(=O)=O)cccc12)C1CC1` : 676
